- experiment-description: 2D NMR structural score versus reference peptide
- Format: physicochemical
- Set-up: key: +++ indicates the peptide is structured similarly to IGE063 (SEQ ID NO:49); + indicates the peptide is structured similarly to IGE063 (SEQ ID NO:49), but is less stable; −/+ indicates the peptide has some elements of stable structure, but the conformation differs from the reference structure (e.g., a different turn type is evident); − indicates the peptide is predominantly unstructured in aqueous solution
- recorded-conditions: reference IGE063
Where a SMILES comes first, the peptide text is derived from it. Bridges are numbered along the chain shown (N, C = ends).
measurement-label: Struct. Score

compound	reading
CSCC[C@H](NC(=O)[C@@H]1CSSC[C@H](NC(=O)[C@H](CCCNC(=N)N)NC(=O)[C@@H]2CCCN2C(=O)[C@H](CC(C)C)NC(=O)[C@H](CC(N)=O)NC(C)=O)C(=O)N[C@@H]([C@@H](C)O)C(=O)N[C@@H](CCC(=O)O)C(=O)NCC(=O)N2CCC[C@H]2C(=O)N[C@@H](Cc2c[nH]c3ccccc23)C(=O)NCC(=O)N[C@@H](CC(C)C)C(=O)N[C@@H](C(C)C)C(=O)N1)C(=O)O [IGE109, Ac-NLPRCTEGPWGLVCM] (Ac-NLPRCTEGPWGLVCM-OH; disulfide 5-14; C-terminus assumed)	+++
CSCC[C@H](NC(=O)[C@@H]1CSSC[C@H](NC(=O)[C@H](CCCNC(=N)N)NC(=O)[C@@H]2CCCN2C(=O)[C@H](CC(C)C)NC(=O)[C@@H](N)CC(N)=O)C(=O)N[C@@H]([C@@H](C)O)C(=O)N[C@@H](CCC(=O)O)C(=O)NCC(=O)N2CCC[C@H]2C(=O)N[C@@H](Cc2c[nH]c3ccccc23)C(=O)NCC(=O)N[C@@H](Cc2c[nH]c3ccccc23)C(=O)N[C@@H](Cc2ccc(O)cc2)C(=O)N1)C(=O)O [IGE077, NLPRCTEGPWGWYCM] (H-NLPRCTEGPWGWYCM-OH; disulfide 5-14; N-terminus and C-terminus assumed)	+++
